Examples of binders with documented OD follow.
# target: recombinant soluble trimeric 1918 H1 HA (A/South Carolina/1/1918, wild type) (Influenza A virus A/South …, UniProt Q9WFX3 18-529)
# Sequence (Q9WFX3 18-529): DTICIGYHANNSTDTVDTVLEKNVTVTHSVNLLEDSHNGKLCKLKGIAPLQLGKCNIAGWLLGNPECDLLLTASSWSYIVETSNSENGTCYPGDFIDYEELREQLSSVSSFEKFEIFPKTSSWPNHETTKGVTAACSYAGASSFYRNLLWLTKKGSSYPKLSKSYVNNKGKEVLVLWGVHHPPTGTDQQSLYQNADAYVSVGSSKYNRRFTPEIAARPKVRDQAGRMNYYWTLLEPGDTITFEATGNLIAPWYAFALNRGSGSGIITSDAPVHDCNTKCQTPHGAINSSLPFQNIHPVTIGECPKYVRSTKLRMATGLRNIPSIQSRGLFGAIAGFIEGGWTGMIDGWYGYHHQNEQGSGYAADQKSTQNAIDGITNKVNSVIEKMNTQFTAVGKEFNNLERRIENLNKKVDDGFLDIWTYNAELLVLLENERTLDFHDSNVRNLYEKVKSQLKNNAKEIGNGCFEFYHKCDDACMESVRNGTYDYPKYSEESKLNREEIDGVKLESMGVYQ
# protocol notes: ELISA, supernate

# binder, OD
records = [
    ("mAb 4A10 (antibody, V domains shown) VH: EVQLVESGGGLVQPGGSLRLSCAASGFSFSSYWMTWVRQAPGKGLEWVANIKQYGSEKYYVDSVKGRFTISRDNAKNSLYLQMNSLRDDDTAVYYCARMGSYLDTYYYHYGMDVWGQGTTVTVS VL: QSVLTQPPSLSGAPGQRVTISCTGSSSNIGADYDVYWYQHLPGTAPKLLMYGDGYRPSGVPDRFSGSKSGTSASLAITGLQAEDEADYYCQSYDSSLSRRVVFGGGTKLTVLG", "0.725 OD"),
    ("mAb 5J8 (antibody, V domains shown) VH: EVQLVESGPGLVKPSDILSLTCAVSGYSISSNYYWGWIRQPPGKGLEWIGSIYHSGSTYYKPSLESRLGISVDTSKNQFSLKLSFVSAADTAVYYCARHVRSGYPDTAYYFDKWGQGTLVTVS VL: SYVLTQPPSVSVAPGETARISCGGNNIGTKVLHWYQQTPGQAPVLVVYDDSDRPSGIPERFSGSNSGNTATLTISRVEVGDEADYYCQVWDISTDQAVFGGGTKLTVLG", "0.262 OD"),
    ("mAb 2K11 (antibody, V domains shown) VH: EVQLVESGGGLVQPGGSLRLSCVASTFSLINYWMTWVRQAPGKGLEWVANIKQDGFEKYYVDSVKGRFTISRDNAKNSLYLQMNSLRVEDTAVYYCARQGSYADTYFYHYGMDVWGQGTTVTVS VL: QSALTQPPSVSGAPGQRVTISCTGSSSNIGAGYDAYWYQQLPGTAPKLLIYGNSNRLSGVPDRFSASKSGTSASLAITGLQAEDEADYYCQSYDSSLSIFGGGTKLTVLR", "0.311 OD"),
    ("mAb 2O10 (antibody, V domains shown) VH: EVQLVESGGGLVQPGGSLRLSCAASGFTFNSYWMTWVRQAPGKGLEWVANINQDGSEKFFVDSVKGRFTISRDNAKTSLYLQMNSLRVEDTAVYYCAREGAPYDTYYYYYAMDVWGQGTTVTVS VL: QSVLTQPPSVSGAPGQRVTISCTGTSSNIGAGYGVHWYQQLPGAAPKLLVYGNSNRPSGVPDRFSGSKSGTSASLAITGLQAEDEADYYCQSYDISLSGSNVFGTGTKVTVLG", "0.308 OD"),
]
